Entries below carry reported IC50 on UniProt:Q96P20.
Sequence (Q96P20 whole entry): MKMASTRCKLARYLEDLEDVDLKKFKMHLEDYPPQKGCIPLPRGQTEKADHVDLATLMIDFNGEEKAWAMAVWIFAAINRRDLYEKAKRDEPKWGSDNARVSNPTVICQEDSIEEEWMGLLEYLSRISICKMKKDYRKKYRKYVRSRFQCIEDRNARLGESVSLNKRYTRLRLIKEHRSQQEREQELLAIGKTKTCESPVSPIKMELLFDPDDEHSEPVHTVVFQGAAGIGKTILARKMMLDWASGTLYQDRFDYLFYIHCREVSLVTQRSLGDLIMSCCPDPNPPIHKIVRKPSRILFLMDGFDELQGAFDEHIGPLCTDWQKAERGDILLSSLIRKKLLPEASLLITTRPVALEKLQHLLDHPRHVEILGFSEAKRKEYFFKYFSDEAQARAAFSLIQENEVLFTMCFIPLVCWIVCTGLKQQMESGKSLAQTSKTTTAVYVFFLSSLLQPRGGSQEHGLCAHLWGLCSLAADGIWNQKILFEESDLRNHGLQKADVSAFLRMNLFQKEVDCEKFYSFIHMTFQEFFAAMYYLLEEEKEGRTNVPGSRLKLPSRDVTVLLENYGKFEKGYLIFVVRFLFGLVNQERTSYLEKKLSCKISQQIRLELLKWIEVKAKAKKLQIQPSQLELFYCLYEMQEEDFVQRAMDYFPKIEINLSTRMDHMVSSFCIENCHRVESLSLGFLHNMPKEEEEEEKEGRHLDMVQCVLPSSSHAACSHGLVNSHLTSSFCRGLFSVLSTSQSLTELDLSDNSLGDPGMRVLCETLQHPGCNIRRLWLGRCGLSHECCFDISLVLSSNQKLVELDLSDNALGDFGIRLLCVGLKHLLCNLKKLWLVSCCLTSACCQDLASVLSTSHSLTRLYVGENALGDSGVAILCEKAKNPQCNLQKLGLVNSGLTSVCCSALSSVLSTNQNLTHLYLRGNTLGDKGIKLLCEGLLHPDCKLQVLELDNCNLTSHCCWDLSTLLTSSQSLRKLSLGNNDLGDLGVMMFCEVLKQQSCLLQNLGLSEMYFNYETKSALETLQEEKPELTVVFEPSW
recorded metric: IC50 (nM)

Here is how some compounds turned out for IC50.
>>> measured_number("Oc1cc(OC(F)(F)F)ccc1-c1nnc(N[C@@H]2CCC[C@H](O)C2)c2cnccc12")
14
>>> measured_number("OC[C@@H](O)CNc1nnc(-c2ccc(Cl)cc2O)c2ccccc12")
45
>>> measured_number("Oc1cc(C(F)(F)F)ccc1-c1nnc(N[C@@H]2CCCC[C@@H]2O)c2ccccc12")
31

(1) C[C@]1(O)C[C@@H](Nc2nnc(-c3ccc(C(F)(F)F)cc3O)c3ccccc23)C1
(2) C[C@@]1(O)CC[C@@H](Nc2nnc(-c3ccc(C(F)(F)F)cc3O)c3ccncc23)C1
(3) Cc1ccc(-c2nnc(NC[C@H](O)CO)c3ccccc23)c(O)c1
Qu. Rank by IC50 (largest to smallest). Ranked list of labels, please, in the requested order.
Ans. 3, 1, 2
(3: 82 nM, 1: 32 nM, 2: 16 nM)

* * *

test name: Solubility (Test F), McIlvaine buffer pH 6.5
Type: physicochemical
experimental conditions: disodium hydrogenphosphate-citric acid (McIlvaine) buffer, 25 °C, pH 6.5, aqueous buffer, thermodynamic from solid, McIlvaine buffer pH 6.5, 25° C., 24 to 72 h; theoretical maximum 200 μM
recorded metric: solubility

>>> result("Oc1cccc(C(F)(F)F)c1-c1nnc(N[C@@H]2CCC[C@H](O)C2)c2cnccc12 (single isomer, unassigned)")
"> 80.9 µg/mL"
>>> result("OC[C@@H](O)CNc1nnc(-c2ccc(OC(F)(F)F)cc2O)c2ccccc12")
"> 79.1 µg/mL"

Qu. Provide one value: measured solubility of C[C@]1(O)C[C@@H](Nc2nnc(-c3c(O)cccc3F)c3cccnc23)C1
Ans. > 68.1 µg/mL
